Some compounds, each annotated with its measured pIC50.
Molecular target: JAK1 (Homo sapiens (Human), UniProt P23458)
Sequence (P23458 whole entry): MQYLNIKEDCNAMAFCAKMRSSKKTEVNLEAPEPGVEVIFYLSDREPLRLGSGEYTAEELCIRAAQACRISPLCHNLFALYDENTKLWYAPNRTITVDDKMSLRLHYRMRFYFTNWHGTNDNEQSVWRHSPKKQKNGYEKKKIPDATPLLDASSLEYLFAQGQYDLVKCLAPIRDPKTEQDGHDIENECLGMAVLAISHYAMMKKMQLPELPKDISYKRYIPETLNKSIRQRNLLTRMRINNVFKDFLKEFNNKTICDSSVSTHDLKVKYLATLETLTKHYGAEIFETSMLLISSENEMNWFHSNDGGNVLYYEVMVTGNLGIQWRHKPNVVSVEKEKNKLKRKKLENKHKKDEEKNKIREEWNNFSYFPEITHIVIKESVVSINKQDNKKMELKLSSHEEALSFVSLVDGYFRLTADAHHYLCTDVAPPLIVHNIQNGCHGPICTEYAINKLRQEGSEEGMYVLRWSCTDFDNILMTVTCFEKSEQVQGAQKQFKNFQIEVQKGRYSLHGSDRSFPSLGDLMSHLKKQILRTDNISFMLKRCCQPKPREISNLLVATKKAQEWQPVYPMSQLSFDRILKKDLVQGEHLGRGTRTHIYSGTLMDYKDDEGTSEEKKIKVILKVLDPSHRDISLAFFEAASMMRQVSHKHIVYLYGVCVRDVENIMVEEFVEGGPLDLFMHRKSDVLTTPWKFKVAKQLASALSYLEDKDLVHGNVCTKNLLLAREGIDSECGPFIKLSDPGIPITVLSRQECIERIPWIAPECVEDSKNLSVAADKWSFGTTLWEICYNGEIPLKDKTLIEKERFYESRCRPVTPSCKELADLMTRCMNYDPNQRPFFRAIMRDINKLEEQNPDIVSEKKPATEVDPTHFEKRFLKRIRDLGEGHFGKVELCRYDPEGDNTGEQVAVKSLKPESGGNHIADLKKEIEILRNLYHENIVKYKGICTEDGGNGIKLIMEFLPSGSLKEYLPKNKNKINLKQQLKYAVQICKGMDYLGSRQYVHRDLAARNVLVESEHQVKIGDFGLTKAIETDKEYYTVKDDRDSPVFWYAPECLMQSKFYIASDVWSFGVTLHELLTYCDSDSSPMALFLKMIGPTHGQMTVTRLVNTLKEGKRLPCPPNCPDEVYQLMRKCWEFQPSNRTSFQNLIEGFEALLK
Assay: Cellular JAK1 assay: IL-6-mediated STAT3 phosphorylation in TF-1 cells
Settings: IL-6 stimulation, STAT3 phosphorylation at Tyr705 (AlphaLISA), read-out: Inhibitory Activity Against JAK1 IC50
pIC50: −log10 of the molar value.
measurement_type: pIC50

• O=C(Nc1cn2c(-c3ccc(CN4CCS(=O)(=O)CC4)c(F)c3)cccc2n1)C1CC1 = ≥ 6.30
• O=C(Nc1cn2c(-c3ccc(CN4CCS(=O)(=O)CC4)cc3)cccc2n1)C1CC1 = ≥ 6.30
• CC1(C)CN(C(=O)c2ccc(-c3cccc4nc(NC(=O)C5CC5)cn34)cc2)C1 = ≥ 6.30

The reported numbers originate from patent US10730875B2.
